# assayed.system: T1, SARS-CoV-2 RBD (RBD-luciferase antigen of the split-luciferase reporter) (SARS-CoV-2, UniProt P0DTC2 319-541)
# T1 construct: domain: RBD
# method.summary: split-luciferase reporter of RBD-hACE2 interaction; antibody against hACE2
observable: % inhibition of RBD-hACE2 binding

// known answers, use as guide
3H2 (antibody, V domains shown, also called 1-3H2) VH: QVQLQQSGAELMKPGASVKISCKATGNTFSNYWIEWVKQRPGHGLEWIGEILPGSDSTNYNEKFKGKATFTADTSSKTAYMQLSSLTSEDSAVYYCARNRFYWYFDVWGAGTTVTVSS VL: DVVMTQTPLSLPVSLGDQASISCRSSQSLVHSNGNTYLHWYLQKPGQSPKLLIYKVSNRFSGVPDRFSGSGSGTDFTLKISRVEAEDLGIYFCSQSTHVPWTFGGGTKLEIK    > 80%
3A2 (antibody, V domains shown, also called 3A2 clone) VH: QVTLKESGPGILQPSQTLSLTCSFSGFSLSTSGMGVSWIRQPSGKGLEWLAHIYWDDDKRYNPSLKSRLTISKDTSSSQVFLKITSVDTVDTATYYCARRGPLITTDGTFDVWGAGTTVTVSS VL: DIVMTQSRKFMSTSVGDRVSITCKASQDVGTSVAWYQQKPGQSPKLLIYWASTRHTGVPDRFTGSGSGTDFTLTINSVQSEDLADYFCQQYSSYPYTFGGGTKLEMK    > 80%

// below: % inhibition of RBD-hACE2 binding requested for another binder
Query 3F2 (antibody, V domains shown, also called 1-3F2) VH: QVQLQQPGAELVKPGASVKMSCKASGYTFTSYSLHWVKQTPGQGLEWIGAVYPGNDDTSYNQNFKGKATLTADKSSNTAYMQLSSLTSEDSAVYYCARDGYFAMDYWGQGTSVTVSS VL: DIVMSQSPSSLAVSVGEKVTMSCKSSQSLLYSTNQKNYLAWYQQKPGQSPKLLIYWASTRESGVPDRFTGSGSGTDFTLTISSVKAEDLAVYYCHQYYSYPWTFGGGTKLEIK yields % inhibition of RBD-hACE2 binding of > 80%
